Task for the reader: assign each of the following binders its reported FP Assay /.
System name: T1, βTrCP (tag cleaved and complexed with Skp1) (UniProt Q9Y297 175-605; P63208 1-163)
T1 construct: Protein of the fluorescence polarisation assay, 0.035 µM; also called Beta Transducin repeat-containing protein; βTrCP/Skp1
T1 sequence (Q9Y297 175-605, chain 1 of 2): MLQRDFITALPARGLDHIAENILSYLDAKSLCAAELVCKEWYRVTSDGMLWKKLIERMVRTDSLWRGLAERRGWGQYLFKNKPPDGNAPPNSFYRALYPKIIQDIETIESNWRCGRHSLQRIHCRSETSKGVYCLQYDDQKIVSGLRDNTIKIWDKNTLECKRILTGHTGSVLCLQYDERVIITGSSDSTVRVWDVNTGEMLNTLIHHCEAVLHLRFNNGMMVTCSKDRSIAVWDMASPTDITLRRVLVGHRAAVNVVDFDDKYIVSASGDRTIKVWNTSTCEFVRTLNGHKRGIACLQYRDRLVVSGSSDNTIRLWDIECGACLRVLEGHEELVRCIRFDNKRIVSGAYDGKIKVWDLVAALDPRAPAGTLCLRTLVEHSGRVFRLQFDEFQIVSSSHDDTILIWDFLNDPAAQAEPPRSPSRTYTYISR
T1 sequence (P63208 whole entry, chain 2 of 2): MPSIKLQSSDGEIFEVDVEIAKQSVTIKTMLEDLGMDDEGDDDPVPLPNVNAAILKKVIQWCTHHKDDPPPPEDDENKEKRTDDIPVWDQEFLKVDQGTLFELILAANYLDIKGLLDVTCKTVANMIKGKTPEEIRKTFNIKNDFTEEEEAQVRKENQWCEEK
Experiment: fluorescence polarisation assay; the column head does not say whether IC50 or Ki
Non-standard residues stand in square brackets, D forms with d. Groups on a side chain read outwards from the residue. *: point of attachment. Chol = cholesteryl, CC(C)CCC[C@@H](C)[C@H]1CC[C@H]2[C@@H]3CC=C4C[C@@H](*)CC[C@]4(C)[C@H]3CC[C@]12C; Benzenesulfonyl(4-tBu) = CC(C)(C)c1ccc(S(=O)(=O)*)cc1; 2,4,6‑trimethylbenzoyl = Cc1cc(C)c(C(=O)*)c(C)c1; Benzenesulfonyl(4-OMe) = COc1ccc(S(=O)(=O)*)cc1; 4‑(Br)‑2‑(Me)PhSO2 = Cc1cc(Br)ccc1S(=O)(=O)*; 4‑(i-Pr)PhSO2 = CC(C)c1ccc(S(=O)(=O)*)cc1; Benzoyl(4-tBu) = CC(C)(C)c1ccc(C(=O)*)cc1; 4‑(n-Pr)PhSO2 = CCCc1ccc(S(=O)(=O)*)cc1; Phe(3-F) = N[C@@H](Cc1cccc(F)c1)C(=O)O; Benzoyl(4-Br) = O=C(c1ccc(Br)cc1)*; 2Naphthoyl = O=C(c1ccc2ccccc2c1)*; Benzoyl(4-Me) = Cc1ccc(C(=O)*)cc1; Brosyl = O=S(=O)(c1ccc(Br)cc1)*; Ahx = NCCCCCC(=O)O
Answers are plain numbers, in nM.

Example entries and their recorded answers appear below.
# Binder, Measured quantity, Result unit, Numeric result
rows = [
    ("{4‑(i-Pr)PhSO2}-[dD]EG[Phe(3-F)]WE[Ahx]K(Benzoyl(4-tBu))-NH2 (Round II CPP; also called UBP080) [4-(i-Pr)PhSO2-dEGF(3F)WE-Ahx-K(CO((4-tBu)Ph))-NH2]", "FP Assay /", "nM", 73),
    ("Brosyl-[dD]EG[Phe(3-F)]WE[Ahx]K(Benzoyl(4-Br))-NH2 (Round II CPP; also called UBP093) [4-(Br)PhSO2-dEGF(3F)WE-Ahx-K(CO((4-Br)Ph))-NH2]", "FP Assay /", "nM", 106),
    ("{4‑(i-Pr)PhSO2}-[dD]EG[Phe(3-F)]WE[Ahx]K(2Naphthoyl)-NH2 (Round II CPP; also called UBP081) [4-(i-Pr)PhSO2-dEGF(3F)WE-Ahx-K(CO(2-Naphth))-NH2]", "FP Assay /", "nM", 7.66),
    ("{Benzenesulfonyl(4-tBu)}-[dD]EG[Phe(3-F)]WE[Ahx]K(Benzoyl(4-Br))-NH2 (Round II CPP; also called UBP079) [4-(t-Bu)PhSO2-dEGF(3F)WE-Ahx-K(CO((4-Br)Ph))-NH2]", "FP Assay /", "nM", 40.8),
    ("Brosyl-[dD]EG[Phe(3-F)]WE[Ahx]K(Benzoyl(4-tBu))-NH2 (Round II CPP; also called UBP089) [4-(Br)PhSO2-dEGF(3F)WE-Ahx-K(CO((4-tBu)Ph))-NH2]", "FP Assay /", "nM", 305),
]

For each entry beneath this line, provide reported FP Assay /.
1. {4‑(n-Pr)PhSO2}-[dD]EG[Phe(3-F)]WE[Ahx]K(2,4,6‑trimethylbenzoyl)-NH2 (Round II CPP; also called UBP086) [4-(n-Pr)PhSO2-dEGF(3F)WE-Ahx-K(CO((2,4,6-Me3)Ph))-NH2]
2. {4‑(n-Pr)PhSO2}-[dD]EG[Phe(3-F)]WE[Ahx]K(Benzoyl(4-Br))-NH2 (Round II CPP; also called UBP088) [4-(n-Pr)PhSO2-dEGF(3F)WE-Ahx-K(CO((4-Br)Ph))-NH2]
3. {4‑(i-Pr)PhSO2}-[dD]EG[Phe(3-F)]WE[Ahx]K(Benzoyl(4-Br))-NH2 (Round II CPP; also called UBP083) [4-(i-Pr)PhSO2-dEGF(3F)WE-Ahx-K(CO((4-Br)Ph))-NH2]
4. {Benzenesulfonyl(4-OMe)}-[dD]EG[Phe(3-F)]WE[Ahx]K([Ahx-Chol])-NH2 (X stands for Ahx; also called UBP036) [4-(MeO)PhSO2-dEGF(3F)WE-Ahx-K(Ahx-Chol)-NH2]
5. Brosyl-[dD]EG[Phe(3-F)]WE[Ahx]K(2,4,6‑trimethylbenzoyl)-NH2 (Round II CPP; also called UBP091) [4-(Br)PhSO2-dEGF(3F)WE-Ahx-K(CO((2,4,6-Me3)Ph))-NH2]
6. {4‑(Br)‑2‑(Me)PhSO2}-[dD]EG[Phe(3-F)]WE[Ahx]K(Benzoyl(4-Me))-NH2 (Round II CPP; also called UBP097) [4-(Br)-2-(Me)PhSO2-dEGF(3F)WE-Ahx-K(CO((4-Me)Ph))-NH2]

1: 29.4; 2: 39.6; 3: 36.5; 4: 19.3; 5: 88.3; 6: 114
